Entry source: patent US20180291110A1

Tested target: T1, human transferrin receptor (recombinant, for surface plasmon resonance) (human, UniProt P02786 89-760)
T1 construct: also called huTfR; human transferrin receptor-biotinylated
T1 sequence (P02786 89-760 limits assumed): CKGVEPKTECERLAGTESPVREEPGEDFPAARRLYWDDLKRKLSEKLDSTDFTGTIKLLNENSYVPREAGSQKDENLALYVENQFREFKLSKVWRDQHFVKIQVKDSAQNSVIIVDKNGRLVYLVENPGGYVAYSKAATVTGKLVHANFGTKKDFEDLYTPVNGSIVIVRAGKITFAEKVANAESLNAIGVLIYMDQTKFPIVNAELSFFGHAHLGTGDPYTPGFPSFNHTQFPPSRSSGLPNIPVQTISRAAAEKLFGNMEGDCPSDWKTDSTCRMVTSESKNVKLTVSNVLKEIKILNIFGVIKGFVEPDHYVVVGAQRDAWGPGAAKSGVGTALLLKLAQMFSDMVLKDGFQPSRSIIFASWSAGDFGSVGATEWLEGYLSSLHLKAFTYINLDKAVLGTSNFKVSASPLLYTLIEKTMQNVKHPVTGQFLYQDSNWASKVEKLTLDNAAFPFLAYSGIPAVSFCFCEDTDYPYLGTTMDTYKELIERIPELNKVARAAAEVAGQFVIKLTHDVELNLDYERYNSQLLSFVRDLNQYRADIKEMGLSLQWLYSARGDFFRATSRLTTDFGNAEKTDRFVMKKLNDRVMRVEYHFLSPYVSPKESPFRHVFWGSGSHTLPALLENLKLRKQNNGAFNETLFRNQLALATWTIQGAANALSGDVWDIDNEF
Experiment description: SPR 25C

Binder: 2/99 VH12/VL1 (antibody, V domains shown) VH: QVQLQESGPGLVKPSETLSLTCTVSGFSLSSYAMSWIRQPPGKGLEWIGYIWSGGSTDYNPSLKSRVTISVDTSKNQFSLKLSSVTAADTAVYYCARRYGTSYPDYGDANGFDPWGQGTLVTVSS VL: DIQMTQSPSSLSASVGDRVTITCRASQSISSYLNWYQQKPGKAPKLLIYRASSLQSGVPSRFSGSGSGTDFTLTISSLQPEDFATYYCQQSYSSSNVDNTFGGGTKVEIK
koff, s⁻¹: 0.001
//
Binder: 2/99 VH23-DANG/VL1 (antibody, V domains shown) VH: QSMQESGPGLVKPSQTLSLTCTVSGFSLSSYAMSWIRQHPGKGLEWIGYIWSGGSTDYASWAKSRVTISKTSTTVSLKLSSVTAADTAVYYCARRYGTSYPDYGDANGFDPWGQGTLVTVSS VL: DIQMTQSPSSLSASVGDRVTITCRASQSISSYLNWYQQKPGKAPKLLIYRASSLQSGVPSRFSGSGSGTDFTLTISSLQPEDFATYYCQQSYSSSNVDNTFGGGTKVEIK
koff, s⁻¹: 0.0028
